Answer each item with its documented MIC.
# Test system: Pseudomonas aeruginosa
# Measurement Description: Antibacterial activity against Pseudomonas aeruginosa PAO1 after 16 to 20 hrs by broth microdilution method
# Assay type: functional

Answered examples (4):
CC(C)C(=O)C(O)Cc1c[nH]c2ccccc12 (single isomer, unassigned; (+)) : > 80 µg/mL
CC(=O)OC(Cc1c[nH]c2ccccc12)C(=O)C(C)C (stereo not given) : > 80 µg/mL
CC(=O)OC(C(=O)Cc1c[nH]c2ccccc12)C(C)C (stereo not given) : > 80 µg/mL
CC(C)C(O)C(=O)Cc1c[nH]c2ccccc12 (single isomer, unassigned; (-)) : > 80 µg/mL

Please look at the following compound next.
# input # get_value(readout='MIC', item= O=C(O)c1cn(C2CC2)c2cc(N3CCNCC3)c(F)cc2c1=O [CIPROFLOXACIN] )
# output 0.313 µg/mL
